Reference source: patent US10280150B2

target: IDH1-R132H recombinant protein (Homo sapiens (Human), UniProt O75874, R132H); assay: IDH1-R132H enzymatic assay (inhibition of NADPH consumption, diaphorase/resazurin readout); settings: read-out: Enzyme IDH1 R132H IC50 (Range)
Sequence (O75874 whole entry R132H): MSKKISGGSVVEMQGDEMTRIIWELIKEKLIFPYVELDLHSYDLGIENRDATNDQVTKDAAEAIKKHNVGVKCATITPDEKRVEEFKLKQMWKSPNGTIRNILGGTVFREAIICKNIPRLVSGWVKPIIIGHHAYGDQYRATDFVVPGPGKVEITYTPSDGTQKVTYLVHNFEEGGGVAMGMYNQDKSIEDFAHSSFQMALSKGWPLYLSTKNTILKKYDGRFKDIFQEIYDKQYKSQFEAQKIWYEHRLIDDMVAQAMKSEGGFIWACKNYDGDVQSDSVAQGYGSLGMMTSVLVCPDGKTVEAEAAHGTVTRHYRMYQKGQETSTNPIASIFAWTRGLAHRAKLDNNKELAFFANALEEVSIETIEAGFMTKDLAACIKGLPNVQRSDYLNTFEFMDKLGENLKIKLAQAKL
Provide the reported IC50 of each item.

QUERY: Quick one: give measured IC50 for COc1cc2[nH]c(=O)c([C@H](C)Nc3nccc(N4CCOC4=O)n3)cc2cc1Cl
RESULT: < 100 nM

QUERY: Read off the recorded IC50 for COc1nc(N[C@H](C)c2nc3cc(Cl)ccc3[nH]c2=O)ncc1C#N
RESULT: 100 to 1000 nM

QUERY: Give the reported value of IC50 for this record: Cc1nn(C)c(C)c1-c1ccnc(N[C@@H](C)c2cc3cc(Cl)ccc3[nH]c2=O)n1
RESULT: 1000 to 10000 nM

QUERY: Indicate the recorded IC50 value for this compound: Cc1nc(N[C@@H](C)c2cc3cc(Cl)ccc3[nH]c2=O)ncc1Br
RESULT: 100 to 1000 nM

QUERY: Return IC50 for the following compound: CC(C)[C@H]1COC(=O)N1c1ccnc(NCc2cc3cc(Cl)ccc3[nH]c2=O)n1
RESULT: < 100 nM

QUERY: Provide measured IC50 value, entry: C[C@H](Nc1nccc(-c2cnsc2)n1)c1cc2cc(Cl)ccc2[nH]c1=O
RESULT: < 100 nM

QUERY: Quick one: give measured IC50 for C[C@H](Nc1nccc(C2CCCS2(=O)=O)n1)c1cc2cc(Cl)ccc2[nH]c1=O (some centres unmarked)
RESULT: 100 to 1000 nM

QUERY: Specify reported IC50 for the compound shown: CC(=O)N(CC(C)C)c1ccnc(NC(C)c2cc3cc(Cl)ccc3[nH]c2=O)n1 (centres unmarked)
RESULT: 100 to 1000 nM

QUERY: Indicate its recorded IC50; the compound in question is C[C@H](Nc1nccc(NC(C)(C)C)n1)c1cc2cc(Cl)ccc2[nH]c1=O
RESULT: 100 to 1000 nM

QUERY: Report IC50 for C[C@H](Nc1nccc(N(CC2CC2)S(C)(=O)=O)n1)c1cc2cc(Cl)ccc2[nH]c1=O
RESULT: < 100 nM

QUERY: Read off the recorded IC50 for CNC(=O)c1ccnc(N[C@@H](C)c2cc3cc(Cl)ccc3[nH]c2=O)n1
RESULT: 100 to 1000 nM

QUERY: Tell us which IC50 value is on record for C[C@H](Nc1nccc(N(CC(F)(F)F)S(C)(=O)=O)n1)c1cc2cc(Cl)ccc2[nH]c1=O
RESULT: < 100 nM

QUERY: Input C[C@H](Nc1nccc(-c2cncn2Cc2ccccc2)n1)c1cc2cc(Cl)ccc2[nH]c1=O , output reported IC50.
RESULT: < 100 nM

QUERY: Give IC50 for C[C@H](Nc1nccc(NC2CC2)n1)c1cc2cc(Cl)ccc2[nH]c1=O
RESULT: 1000 to 10000 nM

QUERY: Annotate the compound CC(=O)Nc1ccnc(NC(C)c2cc3cc(Cl)c(OCc4ccccn4)cc3[nH]c2=O)n1 (centres unmarked) with its measured IC50.
RESULT: < 100 nM

QUERY: Give the reported value of IC50 for this record: CC(C)N(c1ccnc(N[C@@H](C)c2cc3cc(Cl)ccc3[nH]c2=O)n1)S(C)(=O)=O
RESULT: < 100 nM

QUERY: Check the records and state IC50 for CC(C)CC(=O)Nc1ccnc(N[C@@H](C)c2cc3cc(Cl)ccc3[nH]c2=O)n1
RESULT: 100 to 1000 nM

QUERY: Identify measured IC50 associated with C[C@H](Nc1nccc(N(CC(C)(C)C)S(C)(=O)=O)n1)c1cc2cc(Cl)ccc2[nH]c1=O
RESULT: < 100 nM

QUERY: In one line, give reported IC50 of the entry C[C@H](Nc1nccc(S(C)(=O)=O)n1)c1cc2cc(Cl)ccc2[nH]c1=O .
RESULT: 100 to 1000 nM

QUERY: Report measured IC50; entry is C[C@H](Nc1nccc(-c2cccc3c2OCC3)n1)c1cc2cc(Cl)ccc2[nH]c1=O
RESULT: > 10000 nM

QUERY: Look up and state reported IC50 for C[C@H](Nc1nccc(-c2cncn2C)n1)c1cc2cc(Cl)ccc2[nH]c1=O
RESULT: < 100 nM

QUERY: Please indicate IC50 recorded for COc1nc(N[C@H](C)c2cc3cc(Cl)ccc3[nH]c2=O)ncc1C#N
RESULT: 1000 to 10000 nM

QUERY: Input COc1nc(N[C@@H](C)c2cc3ncccc3[nH]c2=O)ncc1C#N , output reported IC50.
RESULT: 1000 to 10000 nM

QUERY: For the compound CC(C)CNC(=O)c1ccnc(N[C@@H](C)c2cc3cc(Cl)ccc3[nH]c2=O)n1 , give its measured IC50 value.
RESULT: 100 to 1000 nM

QUERY: Determine from records and report IC50 for Cc1nnnn1-c1ccnc(N[C@@H](C)c2cc3cc(Cl)ccc3[nH]c2=O)n1
RESULT: < 100 nM

QUERY: // Input: C[C@H](Nc1nccc(SCc2ccccc2)n1)c1cc2cc(Cl)ccc2[nH]c1=O . Output its IC50 only.
RESULT: 1000 to 10000 nM

QUERY: Supply reported IC50 belonging to this compound: CC(=O)c1ccccc1-c1ccnc(N[C@@H](C)c2cc3cc(Cl)ccc3[nH]c2=O)n1
RESULT: 1000 to 10000 nM

QUERY: // fetch IC50 given entry COCC(=O)Nc1ccnc(N[C@@H](C)c2cc3cc(Cl)ccc3[nH]c2=O)n1
RESULT: < 100 nM

QUERY: Supply IC50 value. Item: C[C@H](Nc1nccc([S@@+](C)[O-])n1)c1cc2cc(Cl)ccc2[nH]c1=O
RESULT: 100 to 1000 nM

QUERY: Using known records, supply IC50 for C[C@H](Nc1ncc(C#N)c(C2CC2)n1)c1cc2cc(Cl)ccc2[nH]c1=O
RESULT: < 100 nM

QUERY: Given COc1nc(N[C@@H](C)c2cc3cc(Cl)c(O[C@H](C)c4ccccn4)cc3[nH]c2=O)ncc1C#N , respond with its IC50.
RESULT: < 100 nM

QUERY: Look up and state reported IC50 for COc1cc2[nH]c(=O)c(C(C)Nc3nccc(N4CCOC4=O)n3)cc2cc1Cl (centres unmarked)
RESULT: < 100 nM
